Parameter EC50: see the listing below.
# target.under.test: T1, human SIRPα1 expressed on cells (human, UniProt P78324 31-504)
# T1 construct: whole, on cells; also called ExpiCHO-S (huSIRPα1); CHO cells expressing huSIRPα1
# method.notes: flow cytometry, ExpiCHO-S cells
// return numeric value only (unit: µg/mL, not printed)

As a guide, the following entries are already answered.
binder="anti-SIRPα antibody 8 (antibody, human IgG1, kappa, L234A L235A, V domains shown, Rabbit variable regions on human IgG1 LALA / kappa) VH: QSLEESGGRLVTPGTPLTLTCTASGVDLSNYAMGWVRQAPGKGLEWIGIIYAGGSTSYATWAKGRFTISKTSTTMDLKMTSPTTEDTATYFCARHRSDGYDYFHLWGPGTLVTVSL VL: AIDMTQTPASVSEPVGGTVTIKCQASQSISSWLAWYQQKPGQRPKLLIYDASKLASGVPSRFSGSGSGTEFTLTISGVQSDDAAAYYCQQGYAVSYVENIFGGGTEVVVKR" unit_spec=µg/mL experimental_result=0.22
binder="anti-SIRPα antibody 4 (antibody, human IgG1, kappa, L234A L235A, V domains shown, Chimeric: rabbit variable regions on human IgG1 LALA / kappa; also called chimeric antibody 4) VH: QSVEESGGRLGTPGTPLTLTCTVSGFSLSSYVMGWFRQAPGKGLEYIGIISSSGSPYYASWVNGRFTISKTSTTMDLKMNSPTTEDTATYFCARVGPLGVDYFNIWGPGTLVTVSL VL: DIVMTQTPSSVEAAVGGTVTIKCQAGQSINSYLAWYQQKPGQRPKLLIYYASTLESGVPSRFKGSGSGTDYTLTISDLESADAATYYCQSWHYISRSYAFGGGTEVVVKR" unit_spec=µg/mL experimental_result=0.41

Kindly review the next binder as well.
# query: EC50 of entry anti-SIRPα antibody 2 (antibody, human IgG1, kappa, L234A L235A, V domains shown, Rabbit variable regions on human IgG1 LALA / kappa) VH: QSVEESGGRLVTPGTPLTLTCTVSGFSLSNYAMHWVRQAPGKGLEWIGIIYTGGATSYATWAKGQFTISKTSTTVDLKITSPTTEDTATYFCARGDRDGYAYFNIWGPGTLVTVSL VL: QIVMTQTPFSVSAVVGGTVTIKCQASHNIGSWLAWYQQKPGQRPKLLIYDASTLASGVSSRFKGSGSGTEFTLTISGVESADAATYYCQQGYGISYVHNVFGGGTEVVVKR
0.19
